molecular target: ProLink tagged human APJ (Apelin Receptor) in CHO-K1 AGTRL1 β-Arrestin cells (human, UniProt P35414 1-380); assay: cell-based or functional assay
Sequence (P35414 whole entry): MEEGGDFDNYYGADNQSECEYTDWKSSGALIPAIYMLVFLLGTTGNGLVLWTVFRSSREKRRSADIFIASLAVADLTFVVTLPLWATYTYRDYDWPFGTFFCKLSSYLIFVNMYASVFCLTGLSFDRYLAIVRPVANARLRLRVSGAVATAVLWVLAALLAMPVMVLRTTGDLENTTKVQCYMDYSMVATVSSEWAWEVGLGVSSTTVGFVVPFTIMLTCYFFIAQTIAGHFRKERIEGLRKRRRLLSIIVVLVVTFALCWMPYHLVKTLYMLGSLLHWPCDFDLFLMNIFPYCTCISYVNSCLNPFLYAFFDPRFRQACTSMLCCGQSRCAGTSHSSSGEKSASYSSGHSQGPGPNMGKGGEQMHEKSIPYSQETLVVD
Square brackets hold non-standard residues; d marks the D form. Ends that are not written are not given here.
Overview of recorded β-Arrestin recruitment, Percent of Apelin-13 Control Activity (10 µM peptide) for various binders
Reply numerically in %, unit not repeated.

RRLLGLVFQSLEG[dA] [SEQ ID NO: 41] ... 0
MMGMVF [SEQ ID NO: 45] ... 0
RRMMGMVFQS [SEQ ID NO: 59] ... 0

Turning to the following binder.
Indicate its recorded β-Arrestin recruitment, Percent of Apelin-13 Control Activity (10 µM peptide); the binder in question is KRRMMGMVFQCLCGA ((PEG12) at the N-terminal K; C-terminal (dA) = D-alanine) [SEQ ID NO: 20]
1
